Values compiled from the supplement of paper PMC10567573.

Here, each record is paired with measured protein stability index data.
# Assay Summary: protein stability index of a GFP-peptide fusion (GPS, HEK-293T) (PSI 1-6); higher = more stable;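 further: 24-mer peptide tiles fused after GFP, lentivirally expressed, FACS-sorted into six equal bins by GFP/DsRed ratio, decoded by Illumina sequencing, PSI is the read-weighted mean bin number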
# Study Conditions: treatment: DMSO; c terminus: a fixed tail appended
Please state the value as a number alone, without comment.

Please review the entries below; each comes with its answer.
SRHCPQLPPPCAALWCSGHLNGHA [ADAMTS4] : 2.48
YQELNYRSVEEAPVYSVPQLLSAM [SCNN1D] : 2.49

## Task Give the measured protein stability index of PVGQEIVIPFKVDTILKYLKDHFS [IQUB] .
## Result 2.33

## Task Give the measured protein stability index of ASSMLRKSQLGFLNVTNYCHLAHE [DCAF4] .
## Result 2.2

## Task Give the measured protein stability index of VFDLRMMVANILNNEAFMNQEITK [RHOBTB2] .
## Result 2.72

## Task Give the measured protein stability index of PVPPSEGKSRLSPAGEMKPMPLSE [BCL2L13] .
## Result 5.13

## Task Give the measured protein stability index of FFIQTVRPKDTVMCYRVRWEEAAP [MYORG] .
## Result 2.62

---

# Assay Summary: protein stability index of a GFP-peptide fusion (GPS, HEK-293T) (PSI 1-6); higher = more stable
# Study Conditions: treatment: MLN4924 1 uM, 8 h; c terminus: a fixed tail appended
Measured Property: protein stability index
Please state the value as a number alone, without comment.

Please review the entries below; each comes with its answer.
SERTDTAADGETTATEELEKTQDD [EPB41L3] : 5.59
AIELQGHNDRVQALSYAQHTRQLI [WDFY2] : 3.15
VIDGRNVTVTDVDIVFSKIKGKSC [TPPP] : 2.75

Could you now consider this next sequence?
## Task Give the measured protein stability index of SRGLHAWEISWPLEQRGTHAVVGV [SPSB2] .
## Result 2.17

---

# Assay Summary: protein stability index of a GFP-peptide fusion (GPS, HEK-293T) (PSI 1-6); higher = more stable
# Study Conditions: treatment: DMSO; c terminus: a fixed tail appended
Measured Property: protein stability index

AIELQGHNDRVQALSYAQHTRQLI [WDFY2] : 3.1
LSDVQNPAISITENVLHFKAQGHG [HACD3] : 4.13
DSSSSCSDHCITSSDMMDSSSFSN [VDR] : 4.94
RQWTVSDWGPCSGSCGQGRTIRHV [ADAMTSL2] : 2.15

Could you now consider this next sequence?
## Task Give the measured protein stability index of LSTLLAPYQALRLWARGTWTQATG [SOAT2] .
## Result 2.4

---

# Assay Summary: protein stability index of a GFP-peptide fusion (GPS, HEK-293T) (PSI 1-6); higher = more stable
# Study Conditions: treatment: MLN4924 1 uM, 8 h; c terminus: a fixed tail appended
Here, each record is paired with measured protein stability index data.

PCLLGSRVFSQGSHAWEVALGGLQ [TRIM35] : 2.35
TSLFMTPLDVVKVRLQSQRPSMAS [SLC25A39] : 3.02
LALLNLACMMTITFLPYTFSLMVT [TMEM175] : 3.38
MMRMFSENLAHHLEIDSGVITLDP [TRIM15] : 2.69
VLADLHSAEQLKAQAIDFINRCSV [SPOPL] : 2.29
DLVFVIDGSKSLGEENFEVVKQFV [MATN2] : 2.44
KDHSSSRPSSPRPQKASPNGSISS [BTBD10] : 4.71
QCSQRMLSFSDALLSIIATVMILP [TMEM175] : 3.33
EGCELPDLPSSLLLPEDMALRNLP [SMG5] : 4.49
NITRLQLETEIEALKEELLFMKKN [KRT18] : 3.05

## Task Give the measured protein stability index of VKKYKSMKLEKEEFVTLKAIALAN [ESRRG] .
## Result 2.66

## Task Give the measured protein stability index of MNIIELEIPDQNIDVEALQVAFGS [GMCL1] .
## Result 2.73

---

Here, each record is paired with measured protein stability index data.
# Assay Summary: protein stability index of a GFP-peptide fusion (GPS, HEK-293T) (PSI 1-6); higher = more stable
# Study Conditions: treatment: DMSO; c terminus: a fixed tail appended
Please state the value as a number alone, without comment.

KEEKQRRRCKPKKPTRRDASPESP [GNAS] : 5.43
PCLGHTFNAGIQQAFQLPKLGALL [ZBED1] : 2.36

Could you now consider this next sequence?
## Task Give the measured protein stability index of QFRLKEAFDYIKQRRSMVSPNFGF [DUSP5] .
## Result 2.19

---

Here, each record is paired with measured protein stability index data.
# Assay Summary: protein stability index of a GFP-peptide fusion (GPS, HEK-293T) (PSI 1-6); higher = more stable
# Study Conditions: treatment: MLN4924 1 uM, 8 h; c terminus: a fixed tail appended
Please state the value as a number alone, without comment.

TFLSRILTGLNYEAPKYHIPYWVA [NSDHL] : 3
NENPNNFQILLLSDPSTIEASNFQ [PNLIPRP1] : 3.44

Could you now consider this next sequence?
## Task Give the measured protein stability index of FYNTEDIKDWEDRFYLLLFSFLGL [PTGFR] .
## Result 2.1
